Test: Quantitative high throughput screen for delayed death inhibitors of the malarial parasite plastid, 96 hour incubation (AID 488745); further: nearly all actives have a fitted effect of over 70% in size; further: potency means the concentration at half of the fitted maximal effect
Conditions: Plasmodium falciparum growth; series mostly up to 28.7 µM
Inconclusive results are not listed. Active and inactive are the calls of the source. The call rests on the fitted dose curve; in most records, active means well fitted inhibition curve with a large enough effect; inconclusive means small, poorly fitted or top-dose-only effect, or effect the other way; inactive means no such curve, though single readings can be large or run the other way.
assayMetric: Potency

Answered cases to consult:
| compound | Potency |
| --- | --- |
| S=C(S)OC1CC2CC1C1CCCC21 (stereo not given) | inactive |
| Cc1cc(NC(=O)Nc2ccc3c(ccn3C)c2)sn1 | inactive |
| CCCCN1CCC(n2c(=O)[nH]c3ccccc32)CC1 | inactive |
| CN1CCc2cc(O)c(O)cc2C(c2ccccc2)C1 (stereo not given) | inactive |
| CC(COc1ccc(/C=C/c2ccccc2)cc1)[N+](C)(C)C (stereo not given) | 2.08 µM (active) |
| C[C@@H](CN1CCC(Cc2ccccc2)CC1)[C@@H](O)c1ccc(O)cc1 | inactive |

Each of the following entries comes with a recorded value; kindly state Potency for each.
1. O=c1[nH]c2ccccc2n1CCCN1CCN(C(c2ccccc2)c2ccccc2)CC1
2. NC(CCCP(=O)(O)O)C(=O)O (stereo not given)
3. CCCCCCCCCCCCCCCCCC(=O)NCC(COP(=O)([O-])OCC[N+](C)(C)C)OCC (stereo not given)

["inactive", "inactive", "inactive"]

Requested field: Potency. Item: CC(=O)N[C@H](C(=O)O)C(C)(C)SN=O inactive
